system name: μ-opioid receptor (Rattus norvegicus, UniProt P33535)
Construct: the forebrains are homogenized in Tris buffer in a Teflon®-glass homogenizer; from tissue; host or cells: forebrain of male Wistar rats (particulate membrane preparation)
Sequence (P33535 whole entry): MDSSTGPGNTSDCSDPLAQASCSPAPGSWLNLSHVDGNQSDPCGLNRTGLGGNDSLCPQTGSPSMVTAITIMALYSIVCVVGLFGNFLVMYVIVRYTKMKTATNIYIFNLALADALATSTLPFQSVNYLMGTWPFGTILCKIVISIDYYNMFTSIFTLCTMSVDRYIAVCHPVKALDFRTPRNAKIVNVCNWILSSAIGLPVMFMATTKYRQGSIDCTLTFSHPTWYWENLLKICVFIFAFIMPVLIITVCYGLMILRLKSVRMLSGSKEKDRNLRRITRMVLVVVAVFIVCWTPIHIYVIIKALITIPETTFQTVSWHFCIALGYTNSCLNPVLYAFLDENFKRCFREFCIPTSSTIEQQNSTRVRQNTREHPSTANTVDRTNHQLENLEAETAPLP
procedure summary: Rat brain μ-opioid receptor binding assay ([3H]DAMGO)
condition notes: MOR binding Ki
pKi: −log10 of the molar value.
Label true when pKi >= 7; otherwise false.

CCNC(=O)c1ccc(C(=C2CC3CCC(C2)N3CCc2ccccc2)c2ccc(C(=O)O)cc2)cc1 = false

// inclusive: pKi at least 7? input: CCNC(=O)c1ccc(C(Br)=C2CC3CCC(C2)N3Cc2ccoc2)cc1 (single isomer, unassigned) [Cpd 211]
true

Does the reported pKi for CCNC(=O)c1ccc(C(=C2CC3CCC(C2)N3Cc2nccs2)c2ccc(S(N)(=O)=O)cc2)cc1 fall at or above the 7 mark?
false
